Could you please report measured IC50 for the items listed next?
test system: SARS-CoV-2; assay: Antiviral activity against SARS-CoV-2 variant Omicron BA.1 infected in African green monkey Vero E6 cells assessed as reduction in virus titers of progeny virus in supernatant measured after 72 hrs by CPE assay; type: functional, organism-based; conditions: Severe acute respiratory syndrome coronavirus 2, Omicron BA.1, Vero C1008, 72 h
Provide only the numeric value, understood in µM.

Fill: IC50 (SARS-CoV-2) for this molecule C=C(C)[C@@H]1CCC(C)=C[C@H]1c1c(O)cc(CCCCC)c(C(=O)OC)c1O
15.5

Fill: IC50 (SARS-CoV-2) for this molecule C=C(C)[C@@H]1CCC(C)=C[C@H]1c1c(O)cc(CCCCC)c(C(=O)O)c1O [CANNABIDIOLIC ACID]
45.4

Provenance of the data: ChEMBL document CHEMBL5321262
